Known inhibition of growth at 10 µM of a selection of molecules
Test system: HepG2
Assay: Cytotoxicity against human HepG2 cells assessed as growth inhibition at 10 uM after 24 to 48 hrs by MTT assay relative to control
Assay type: functional
Details: read-out: GI
Just the number please, in %, no unit attached.

Look over these answered cases.
- N#Cc1ccc(S(=O)(=O)N(c2ccccc2)c2ccnc3ccc(-c4ccc(O)cc4)cc23)cc1: 1
- O=[N+]([O-])c1cc(S(=O)(=O)N(c2ccccc2)c2ccnc3ccc(-c4ccc(O)cc4)cc23)ccc1C(F)(F)F: 3
- O=S(=O)(c1ccc(Br)cc1)N(c1ccccc1)c1ccnc2ccc(-c3ccc(O)cc3)cc12: 1
- Oc1ccc(-c2ccc3nccc(Nc4ccccc4)c3c2)cc1: 8
- O=S(=O)(c1ccc(F)cc1F)N(c1ccccc1)c1ccnc2ccc(-c3ccc(O)cc3)cc12: 87
- O=C(c1cccnc1Cl)N(c1ccccc1)c1ccnc2ccc(-c3ccc(O)cc3)cc12: 19

input: Please report the recorded inhibition of growth at 10 µM for "Cc1ccc(S(=O)(=O)N(c2ccccc2)c2ccnc3ccc(-c4ccc(O)cc4)cc23)cc1" .
output: 13

input: Please report the recorded inhibition of growth at 10 µM for "O=[N+]([O-])c1ccc(S(=O)(=O)N(c2ccccc2)c2ccnc3ccc(-c4ccc(O)cc4)cc23)cc1" .
output: 8

input: Please report the recorded inhibition of growth at 10 µM for "COc1ccc(S(=O)(=O)N(c2ccccc2)c2ccnc3ccc(-c4ccc(O)cc4)cc23)cc1" .
output: 20

###

Tested on: HCT-116
Assay: cells
Conditions: Homo sapiens, HCT-116, 48 h
Description: Cytotoxicity against human HCT116 cells assessed as inhibition of cell proliferation after 48 hrs by MTT assay
Value Kind: pIC50
Quick note: pIC50 values are minus log10 of concentrations in mol/L.

Look over these answered cases.
• O=S(=O)(c1ccc(F)cc1)N(c1ccccc1)c1ccnc2ccc(-c3ccc(O)cc3)cc12 = 4.57
• O=S(=O)(c1ccc(F)cc1F)N(c1ccccc1)c1ccnc2ccc(-c3ccc(O)cc3)cc12 = 4.10
• O=[N+]([O-])c1ccc(S(=O)(=O)N(c2ccccc2)c2ccnc3ccc(-c4ccc(O)cc4)cc23)cc1 = 4.05
• O=S(=O)(c1ccc2c(c1)OCCO2)N(c1ccccc1)c1ccnc2ccc(-c3ccc(O)cc3)cc12 = 4.15
• O=C(c1cccnc1Cl)N(c1ccccc1)c1ccnc2ccc(-c3ccc(O)cc3)cc12 = 4.80

input: Please report the recorded pIC50 for "Cc1ccc(S(=O)(=O)N(c2ccccc2)c2ccnc3ccc(-c4ccc(O)cc4)cc23)cc1" .
output: 4.28

input: Please report the recorded pIC50 for "O=S(=O)(c1ccc(Br)cc1)N(c1ccccc1)c1ccnc2ccc(-c3ccc(O)cc3)cc12" .
output: 4.17

###

Known inhibition of growth at 100 µM of a selection of compounds
Experiment: Cytotoxicity against human MIAPaCa2 cells assessed as growth inhibition at 100 uM after 24 to 48 hrs by MTT assay relative to control
Type: functional
Conditions: MIA PaCa-2, read-out: GI
Just the number please, in %, no unit attached.

Look over these answered cases.
- COc1ccc(S(=O)(=O)N(c2ccccc2)c2ccnc3ccc(-c4ccc(O)cc4)cc23)cc1: 86
- O=[N+]([O-])c1ccc(S(=O)(=O)N(c2ccccc2)c2ccnc3ccc(-c4ccc(O)cc4)cc23)cc1: 81
- CC(=O)Nc1ccc(S(=O)(=O)N(c2ccccc2)c2ccnc3ccc(-c4ccc(O)cc4)cc23)cc1: 89

input: Please report the recorded inhibition of growth at 100 µM for "O=S(=O)(c1ccc(F)cc1)N(c1ccccc1)c1ccnc2ccc(-c3ccc(O)cc3)cc12" .
output: 70

input: Please report the recorded inhibition of growth at 100 µM for "O=C(c1ccccc1F)N(c1ccccc1)c1ccnc2ccc(-c3ccc(O)cc3)cc12" .
output: 90

input: Please report the recorded inhibition of growth at 100 µM for "O=S(=O)(c1ccc(Br)cc1)N(c1ccccc1)c1ccnc2ccc(-c3ccc(O)cc3)cc12" .
output: 81

input: Please report the recorded inhibition of growth at 100 µM for "O=S(=O)(c1ccc2c(c1)OCCO2)N(c1ccccc1)c1ccnc2ccc(-c3ccc(O)cc3)cc12" .
output: 86

input: Please report the recorded inhibition of growth at 100 µM for "Cc1c(C)c(C)c(S(=O)(=O)N(c2ccccc2)c2ccnc3ccc(-c4ccc(O)cc4)cc23)c(C)c1C" .
output: 22
